I'd appreciate it if you could supply GI50 values for the items below.
test system: DU-145; assay: NCI tumour cell line growth inhibition, 48 h
Calls of active or inactive are those of the source. Cut-off read from the data, not from the text of the source: active = GI50 up to about 1.1 µM and inactive = higher. Residues, ends and D or L forms follow the SMILES beside them. *: point of attachment. Cbz = O=C(OCc1ccccc1)*; Boc = CC(C)(C)OC(=O)*; OSu = O=C1CCC(=O)N1O*; Bn = c1ccc(C*)cc1

So, c1ccc(CN2COc3c(ccc4c5c(ccc34)CN(Cc3ccccc3)CO5)C2)cc1 ? Its GI50 was > 100 µM (inactive)

The recorded GI50 for entry O=C(c1ccccc1)N1CCC(Nc2nccs2)O1 (stereo not given) equals > 10 µM (inactive)

GI50 recorded for this molecule, c1ccc2sc(SSSc3nc4ccccc4s3)nc2c1 , is > 100 µM (inactive)

The recorded GI50 for entry CC(C)(C)[Si](C)(C)OCC1CCC(n2cnc3c(N)ncnc32)O1 (stereo not given) equals 73.8 µM (inactive)

For c1ccc(/N=C(\N2CCOCC2)N(CCN2CCOCC2)c2ccccc2)cc1 the molecule record lists GI50 as > 100 µM (inactive)

Measured GI50, O=[N+]([O-])c1cccc2nc3ccccc3c(NCCC[N+]3([O-])CCCCC3)c12 : 0.35 µM (active)

For reference, reported GI50 for Oc1ccc(O)c(CNc2ccc(C(O)C(F)(F)F)cc2)c1 (stereo not given) stands at 14.5 µM (inactive)

Entry CC1=C2C(=C[C@H]3[C@]4(C)CCCC(C)(C)[C@H]4CC[C@]34O[C@H]24)OC1=O ; GI50 = > 100 µM (inactive)

Form: molecule = O=C(N/N=C\c1ccc(Cl)cc1)Nc1ccc2ccccc2c1 ; GI50 = > 100 µM (inactive)

Just so you know, measured GI50 for O=C(NC(Cc1c[nH]cn1)C(=O)N1CCCC1)C1CCCC1 (stereo not given) came out at > 100 µM (inactive)

So for O=c1c2cccnc2n2n1Cc1ccccc1C2 , the logged GI50 turned out to be > 100 µM (inactive)

Summary for this molecule, O=C(/N=C1/NCC(CN2CCN(c3ccccc3)CC2)O1)Nc1ccccc1 (stereo not given) : GI50 is > 100 µM (inactive)

Entry CC(C)(C)OC(=O)NC(Cc1ccc(OCc2ccccc2)cc1)C(=O)NC(CCCCNC(=O)OCc1ccccc1)C(=O)NC(CCCCNC(=O)OCc1ccccc1)C(=O)ON1C(=O)CCC1=O (stereo not given) (Boc-Tyr(Bn)-Lys(Cbz)-Lys(Cbz)-OSu; configuration not given here) — recorded GI50 = 88.5 µM (inactive)

Entry CC(=O)Nc1ccc(C(=O)NN2C(=O)CSC2c2ccc([N+](=O)[O-])cc2)cc1 (stereo not given) ; GI50 = > 100 µM (inactive)

// GI50 value for Cc1nnc2sc(N/N=C/c3ccccc3)nn12 : > 100 µM (inactive)

The reported value for Sc1nn2c(COc3cc(Cl)c(OCc4nnc5sc(S)nn45)cc3Cl)nnc2s1 in terms of GI50 is 78.3 µM (inactive)

Measured GI50 of Fc1ccc2c3c([nH]c2c1)CCNC3 : > 100 µM (inactive)

The measured GI50 associated with CC(C)[Si](OC1=C(c2ccccc2)C(NC(=O)/C=C/c2ccc([N+](=O)[O-])cc2)CCC1)(C(C)C)C(C)C (stereo not given) reads > 100 µM (inactive)

Query c1ccc([P+](c2ccccc2)(c2ccccc2)C2c3ccccc3-c3ccccc32)cc1 yields GI50 of 2.87 µM (inactive)

Form: molecule = CC(C)(C)OC(=O)NCCCCCCC(=O)Cc1ccccc1 ; GI50 = > 100 µM (inactive)
